Experiment: Quantitative High-Throughput drug screen in 47 multiple myeloma cell lines against the NCATS MIPE library collection: VP6_DJ cell viability assay (AID 1919867); further: nearly all actives have a fitted effect of over 40% in size
Conditions: ATP luminescence, 48 h; series mostly up to 45.8 µM
Records with an inconclusive call do not appear. The source made the active and inactive calls. The call rests on the fitted dose curve; in most records, active means well fitted cell-killing curve with a large enough effect; inconclusive means small, poorly fitted or top-dose-only effect, or effect the other way; inactive means no such curve, though single readings can be large or run the other way.
Labels: True (active), False (inactive)

Compound | Discrete Label
O=C(c1ccc(F)c(F)c1Nc1ccc(I)cc1F)N1CC(O)([C@H]2CCCCN2)C1 | True
O=c1[nH]c(=O)n([C@H]2C[C@@H](O)[C@@H](CO)O2)cc1I | False
O=C1NC(=O)C(c2cnc3ccccn23)=C1c1cn2c3c(cccc13)CN(C(=O)N1CCOCC1)CC2 | True
Fc1ccc(CNc2ncnc3ccc(F)cc23)cc1 | True
O=C(c1ccc(C=Cc2n[nH]c3ccccc23)cc1)N1CCNCC1 | True
CN1[C@H]2CC[C@H]1CC(OC(=O)c1c[nH]c3ccccc13)C2 (stereo not given in full) | True
Cc1ccc(NC(=O)c2cccc(N(C)C)c2)cc1NC(=O)c1ccc(O)cc1 | True
CCN1CCN(c2ccc(Nc3cc(N(C)C(=O)Nc4c(Cl)c(OC)cc(OC)c4Cl)ncn3)cc2)CC1 | True
CN(C)CC[C@H](CSc1ccccc1)Nc1ccc(S(=O)(=O)NC(=O)c2ccc(N3CCN(Cc4ccccc4-c4ccc(Cl)cc4)CC3)cc2)cc1[N+](=O)[O-] | True
Cc1cccc2c1CC[C@H](CN1CCC(c3c(Cl)cccc3Cl)CC1)C[C@@H]2O | True

* * *

Assay: Quantitative High-Throughput drug screen in 47 multiple myeloma cell lines against the NCATS MIPE library collection: OPM2_DSMZ cell viability assay (AID 1919872); further: nearly all actives have a fitted effect of over 30% in size
Details: OPM2 myeloma viability, CellTiter-Glo ATP luminescence, 48 h; series mostly up to 45.8 µM
Inconclusive results are not listed. Calls of active or inactive are those of the source. Calls follow the shape of the dose curve; as a rule, active = well fitted cell-killing curve with a large enough effect; inconclusive = small, poorly fitted or top-dose-only effect, or effect the other way; inactive = no such curve, though single readings can be large or run the other way.
Labels: active, inactive

Molecule | Discrete Label
COc1cc2c(cc1OC)CC(=O)N(CCCN(C)C[C@H]1Cc3cc(OC)c(OC)cc31)CC2 | inactive
CC(O)=C(C#N)C(=O)Nc1ccc(C(F)(F)F)cc1 | inactive
Cc1ccccc1-n1c(Cn2nc(-c3cccc(O)c3)c3c(N)ncnc32)nc2cccc(C)c2c1=O | active
O=C(c1ccc(F)c(F)c1Nc1ccc(I)cc1F)N1CC(O)([C@H]2CCCCN2)C1 | active
CC=C1C2C=C(C)CC1(N)c1ccc(=O)[nH]c1C2 (configuration not stated) | inactive
NC[C@H]1O[C@H](O[C@@H]2[C@@H](O)[C@@H](O[C@H]3O[C@H](CO)[C@@H](O)[C@H](N)[C@@H]3O)[C@H](N)C[C@@H]2N)[C@H](O)[C@@H](O)[C@H]1O | inactive
NC(=O)c1ncn([C@@H]2O[C@H](CO)[C@@H](O)[C@@H]2O)n1 | inactive

* * *

Examples of compounds with documented Z-AUC follow.
Test: qHTS drug screen for cell cycle checkpoint inhibitors in PARPi-resistant BRCA-mutant ovarian cancer cell lines. (AID 1963452)
Conditions: PEO1/OlaR viability, CellTiter-Glo luminescence, 96 h; active compounds read low
Activity calls are given as the source filed them. Calls come from the whole dose curve.
Quantity: Z-AUC

Compound | Result
CCOc1ccccc1N=Nc1c(C)[nH]n(-c2nc(-c3ccccc3)cs2)c1=O | 1.3 (inactive)
CNc1nc(Nc2ccc(C(=O)N3CCOCC3)cc2OC)ncc1Cl | -0.915 (inactive)
CN1CCC(COc2cnc(-c3cccc(Cn4nc(-c5cccc(C#N)c5)ccc4=O)c3)nc2)CC1 | -0.437 (inactive)
c1cc(OCCN2CCCCC2)cc(-c2n[nH]c3ccc(-c4ncn[nH]4)cc23)c1 | -0.663 (inactive)
COC(=O)N1CCN(Cc2cccc(NC(=O)Nc3ccc(C)nc3)c2F)CC1 | -0.162 (inactive)
CCN1CCN(c2ccc(Nc3cc(N(C)C(=O)Nc4c(Cl)c(OC)cc(OC)c4Cl)ncn3)cc2)CC1 | 0.0169 (inactive)
CCCCc1ccc(NS(=O)(=O)c2ccc(C)c(C(=O)N3CCN(c4cccc(C)c4C)CC3)c2)cc1 | 1.4 (inactive)
CN1C(=O)C(Cc2c[nH]c3ccccc23)NC1=S (configuration not stated) | -0.877 (inactive)
O=C(Nc1ccc(OC(F)(F)F)cc1)c1sccc1NCc1ccnc2ccccc12 | 0.246 (inactive)
COC1CCC(C(=O)c2ccc3nc4c(cc3c2)CCCO4)CC1 (configuration not stated) | -0.16 (inactive)
O=C(O)CCNc1cc(N2CCc3ccccc3CC2)nc(-c2ccccn2)n1 | 0.743 (inactive)
CCn1c(-c2nonc2N)nc2cncc(CNC3CCNCC3)c21 | -0.284 (inactive)

* * *

Experiment: Quantitative High-Throughput drug screen in 47 multiple myeloma cell lines against the NCATS MIPE library collection: KMS28BM_JCRB cell viability assay (AID 1919874); further: nearly all actives have a fitted effect of over 35% in size
Settings: CellTiter-Glo ATP, 48 h; series mostly up to 45.8 µM
Records with an inconclusive call do not appear. Active and inactive are the calls of the source. Calls come from the whole dose curve; as a rule, active = well fitted cell-killing curve with a large enough effect; inconclusive = small, poorly fitted or top-dose-only effect, or effect the other way; inactive = no such curve, though single readings can be large or run the other way.
Labels: active, inactive

Molecule | Discrete Label
CCNC(=O)CCCC=CC[C@@H]1[C@H](C=CC(O)CCc2ccccc2)[C@@H](O)C[C@@H]1O (stereo partly drawn) | active
COc1c(C)c2c(c(O)c1CC=C(C)CCC(=O)O)C(=O)OC2 | active
NC(=O)c1noc([C@H](CCCC2CCCCC2)CC(=O)NO)n1 | inactive
Clc1ccc(C2(c3ccc(-c4cn[nH]c4)cc3)CCNCC2)cc1 | active
CN(C)CC[C@H](CSc1ccccc1)Nc1ccc(S(=O)(=O)NC(=O)c2ccc(N3CCN(Cc4ccccc4-c4ccc(Cl)cc4)CC3)cc2)cc1[N+](=O)[O-] | active
Cc1ccc(C2=Nc3ccc(Cl)cc3OC2)cc1 | inactive
CN(C)c1nc(Cc2ccc(NC(=O)c3ccc(C(F)(F)F)cc3)cc2)nc(N(C)C)c1CC(=O)O | inactive
CCC(=O)NCC[C@@H]1CCc2ccc3c(c21)CCO3 | inactive
CCn1c(-c2nonc2N)nc2cncc(CNC3CCNCC3)c21 | active
COc1cc2ncnc(Nc3cc(Br)c(O)c(Br)c3)c2cc1OC | inactive
CC(C)(CO)[C@@H](O)C(=O)NCCC(=O)O | inactive
CNc1nc(-c2ccc3c(N)n[nH]c3c2)cc(N2C[C@@H](C(=O)NC3CCCCC3)CC[C@@H]2C)n1 | active
C[C@H]1COC2=C1C(=O)C(=O)c1c2ccc2c1CCCC2(C)C | inactive
N[C@@H](CC(=O)N1CCn2c(nnc2C(F)(F)F)C1)Cc1cc(F)c(F)cc1F | active
COc1cc(Nc2nc3ccccc3nc2NS(=O)(=O)c2ccc(NC(=O)c3ccc(C)c(OC)c3)cc2)cc(OC)c1 | inactive
C[C@]12C=CC(=O)C=C1CC[C@@H]1[C@@H]2[C@@H](O)C[C@@]2(C)[C@@H]1CC[C@]2(O)C(=O)CO | inactive
CNC(=O)[C@H](CC1=CN=C2C=CCC=C12)NC(=O)[C@@H](CC(=O)NO)CC(C)C | active
O=C(NC[C@H](O)CO)c1ccncc1Nc1ccc(I)cc1F | inactive
COc1ccc2c(c1)CC[C@H]1[C@@H]2CC[C@]2(C)[C@@H](NCCCCCCN3C(=O)C=CC3=O)CC[C@H]12 | inactive
Cn1c(=O)c(Oc2ccc(F)cc2F)cc2cnc(NC3CCOCC3)nc21 | inactive
CN1CC(=O)N2C(Cc3c([nH]c4ccccc34)[C@H]2c2ccc3c(c2)OCO3)C1=O (stereo partly drawn) | inactive
CCCCOCCOc1nc(-c2ccc(C(=O)O)c(F)c2)sc1C | inactive
O=C1C(CCC(O)c2ccc(F)cc2)C(c2ccc(O)cc2)N1c1ccc(F)cc1 (stereo not drawn) | inactive
CC1CNc2c(cccc2S(=O)(=O)N[C@@H](CCCN=C(N)N)C(=O)N2CC[C@@H](C)C[C@@H]2C(=O)O)C1 (stereo partly drawn) | inactive
CN1c2ccccc2C(=O)N2CCc3c([nH]c4ccccc34)C21 (stereo not drawn) | active
COc1cc(F)c(C(C)C)cc1-c1ccc(C(F)(F)F)cc1CN1C(=O)O[C@H](c2cc(C(F)(F)F)cc(C(F)(F)F)c2)[C@@H]1C | inactive
O=C(Nc1ncc(SCCN2CCCC2)s1)[C@]1(c2ccc(S(=O)(=O)C3CC3)cc2)C[C@@H]1C1CCCCC1 | active
COc1ccc(-c2cc3nccn3c(Nc3ncccc3C(N)=O)n2)cc1OC | active
CN(C)c1ccc(-c2nc3ncc(Cl)c(N4CCN(CC(=O)Nc5nccs5)CC4)c3[nH]2)cc1 | active
O=C(Nc1ccccc1)Nc1ccc(-c2ccc(C(=O)[C@H]3CCC[C@H]3C(=O)O)cc2)cc1 | inactive
C[C@@]1(c2cc(-c3cncnc3)c(F)cc2F)CCSC(N)=N1 | active
CC=C1C2C=C(C)CC1(N)c1ccc(=O)[nH]c1C2 (stereo not drawn) | inactive
COc1cc2nccc(Oc3ccc(NC(=O)Nc4ccc(F)cc4F)c(F)c3)c2cc1OC | active
